- measurement-notes: amyloid nucleation score (Sup35N fusion, yeast selection) (log enrichment); library NNK1; higher = more nucleation; inactive = no reads after selection;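 note: zero at mode of non-aggregating sequences after 7 days selection at 30°C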
Consider the reported amyloid nucleation score of an entry and match it to a band in low bracket: < 0.2; middle bracket: ≥ 0.2 and < 0.8; high bracket: ≥ 0.8

Here are 10 sequences together with their reported answers.
macromolecule-sequence	assigned-class
NKSHAHLKVAMSLVCPFKSH	high bracket
CTLVDHYWGCEGRSCARCSS	middle bracket
VNAMSLLILDAVLDKEQW	high bracket
HQVNSGDLSNMVLCLMLIRW	high bracket
IGQLHFIEITNMREGHPFLA	middle bracket
RLTYSSCSGNLWYFRFKSVE	middle bracket
FLCSIISYS	high bracket
LSVNWFGCTWQNHKEGIGRN	high bracket
RVLLSSVSDM	low bracket
YSVDQYSNTMRLTLHMLVFV	middle bracket

Task item: Classify this sequence: MFGGYRSC
Reply: low bracket

Task item: Classify this sequence: VGVRRDTCSPRQVLGHTS
Reply: middle bracket

Task item: Classify this sequence: QGLSYFDCSDWLNYLFFKSY
Reply: low bracket

Task item: Classify this sequence: GLGDVKNHEFNHVDAEGSGR
Reply: low bracket

Task item: Classify this sequence: VRSPDSLVVWDLVRH
Reply: low bracket
